molecular target: Melanocortin receptor 4 (Homo sapiens, UniProt P32245); assay: Inhibition of [125I]NDP-alpha-MSH binding to human MC4R transfected in HEK293 cells
Sequence (P32245 whole entry): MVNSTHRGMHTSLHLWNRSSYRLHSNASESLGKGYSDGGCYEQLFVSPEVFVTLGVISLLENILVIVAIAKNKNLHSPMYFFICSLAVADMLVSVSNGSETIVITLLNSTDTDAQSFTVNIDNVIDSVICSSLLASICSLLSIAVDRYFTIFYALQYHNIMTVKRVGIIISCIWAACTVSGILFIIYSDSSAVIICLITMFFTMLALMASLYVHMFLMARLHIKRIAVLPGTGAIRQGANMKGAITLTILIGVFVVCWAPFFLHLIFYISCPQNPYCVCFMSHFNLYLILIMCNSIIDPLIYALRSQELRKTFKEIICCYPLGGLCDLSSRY
OBSERVABLE: Ki (nM)

Some solved entries appear below for comparison.
1) CCN(CC(C1CCCCC1)N1CCN(C(=O)[C@@H](Cc2ccc(Cl)cc2)NC(=O)CC2Cc3ccccc3N2)CC1)S(C)(=O)=O (stereo in doubt; 34) | 3
2) CCN(CC(C1CCCCC1)N1CCN(C(=O)[C@@H](Cc2ccc(Cl)cc2)NC(=O)n2cc3ccccc3c2)CC1)S(C)(=O)=O (some centres not stated) | 7
3) O=C(CC1Cc2ccccc2N1)N[C@H](Cc1ccc(Cl)cc1)C(=O)N1CCN(C(CN2C(=O)CCC2=O)C2CCCCC2)CC1 (stereo in doubt; 36) | 10
4) CCN(CC)CC(C)N1CCN(C(=O)[C@@H](Cc2ccc(Cl)cc2)NC(=O)[C@H]2Cc3ccccc3CN2)CC1 (some centres not stated) | 3430
5) CCN(CC)CC(C1CCCCC1)N1CCN(C(=O)[C@@H](Cc2ccc(Cl)cc2)NC(=O)CC2Cc3ccccc3N2)CC1 (stereo in doubt; 28) | 3

A = CCN(CC)CC(C1CCCC1)N1CCN(C(=O)[C@@H](Cc2ccc(Cl)cc2)NC(=O)[C@H]2Cc3ccccc3CN2)CC1 (some centres not stated)
B = CCN(CC)CC1(N2CCN(C(=O)[C@@H](Cc3ccc(Cl)cc3)NC(=O)[C@H]3Cc4ccccc4CN3)CC2)CCCC1
input: Between A and B , which one has the lower reported Ki value? State the label of the item chosen.
output: A

###

biological target: UniProt:P32245; assay: Inhibition of [125I]NDP-alpha-MSH binding to human MC4R transfected in HEK293 cells
OBSERVABLE: Ki (nM)

I = CC(C)CC(CC(C)C)N1CCN(C(=O)[C@@H](Cc2ccc(Cl)cc2)NC(=O)CC2Cc3ccccc3N2)CC1 (some centres undefined)
II = CCN(CC)CC(CC1CCCCC1)N1CCN(C(=O)[C@@H](Cc2ccc(Cl)cc2)NC(=O)CC2Cc3ccccc3N2)CC1 (some centres undefined)
input: Pick one: I or II . Which has the bigger Ki number? State the label of the item chosen.
output: I

###

target: Melanocortin receptor 4 (Homo sapiens); assay: Inhibition of [125I]NDP-alpha-MSH binding to human MC4R transfected in HEK293 cells; format: cell-based
OBSERVABLE: Ki (nM)

1. CCN(CC)CC(C1CCCCC1)N1CCN(C(=O)[C@@H](Cc2ccc(Cl)cc2)NC(=O)CC2Cc3ccccc3N2)CC1 (stereo in doubt; 28a) | 3

1 = O=C(CC1Cc2ccccc2N1)N[C@H](Cc1ccc(Cl)cc1)C(=O)N1CCN(C(C2CCCCC2)C2CCCCC2)CC1 (some centres not stated)
2 = CCN(CC(C1CCCCC1)N1CCN(C(=O)[C@@H](Cc2ccc(Cl)cc2)NC(=O)CC2Cc3ccccc3N2)CC1)C(C)=O (stereo in doubt; 35)
3 = CCN(CC(C1CCCCC1)N1CCN(C(=O)[C@@H](Cc2ccc(Cl)cc2)NC(=O)CC2Cc3ccccc3N2)CC1)C(C)=O (stereo in doubt; 35b)
4 = CC(C)CC(C1CCCCC1)N1CCN(C(=O)[C@@H](Cc2ccc(Cl)cc2)NC(=O)CC2Cc3ccccc3N2)CC1 (some centres not stated)
5 = O=C(CC1Cc2ccccc2N1)N[C@H](Cc1ccc(Cl)cc1)C(=O)N1CCN(C(CC2CCCCC2)CC2CCCCC2)CC1 (some centres not stated)
input: Order the records so the highest Ki appears first and the lowest last. Provide the ranking by listing each label in its place in the requested order.
output: 5, 4, 1, 2, 3
(5: 326 nM, 4: 54 nM, 1: 35 nM, 2: 8 nM, 3: 3 nM)
